Measured IC50, listed per entry.
- Test system: Vero-B
- PROCEDURE_SUMMARY: MTT cytotoxicity assay, normal kidney cell line
- Assay type: cell-based, African green monkey
- RUN_CONDITIONS: Chlorocebus sabaeus, Vero B; Table 1; MTT, 48 hrs incubation; read-out: VERO-B (IC50% μM)
MEASURED_ENDPOINT: IC50 (µM)

# COMPOUND_STRUCTURE_STRING, UNIT_NAME, RESULT_VALUE
rows = [
    ("Cc1ccc(/C=C/C(=O)[C@H]2[C@H](c3ccc(C)cc3)[C@H]3CSCN3[C@]23C(=O)Nc2ccccc23)cc1", "µM", 11.8),
    ("O=C(/C=C/c1ccc(C(F)(F)F)cc1)[C@H]1[C@H](c2ccc(C(F)(F)F)cc2)[C@H]2CSCN2[C@]12C(=O)Nc1ccccc12", "µM", 2.5),
    ("O=C(/C=C/c1cccc(Br)c1)[C@H]1[C@H](c2cccc(Br)c2)[C@H]2CSCN2[C@]12C(=O)Nc1ccccc12", "µM", 3),
    ("O=C(/C=C/c1c(Cl)cccc1Cl)[C@H]1[C@H](c2c(Cl)cccc2Cl)[C@H]2CSCN2[C@]12C(=O)Nc1ccccc12", "µM", 3),
    ("O=C(/C=C/c1ccc(F)cc1)[C@H]1[C@H](c2ccc(F)cc2)[C@H]2CSCN2[C@]12C(=O)Nc1ccc(Br)cc12", "µM", 3),
    ("O=C(/C=C/c1ccc2ccccc2c1)[C@H]1[C@H](c2ccc3ccccc3c2)[C@H]2CSCN2[C@]12C(=O)Nc1ccccc12", "µM", 7),
    ("COc1ccc(/C=C/C(=O)[C@H]2[C@H](c3ccc(OC)cc3)[C@H]3CSCN3[C@]23C(=O)Nc2ccccc23)cc1", "µM", 7.5),
    ("O=C(/C=C/c1ccc(Cl)cc1Cl)[C@H]1[C@H](c2ccc(Cl)cc2Cl)[C@H]2CSCN2[C@]12C(=O)Nc1ccccc12", "µM", 5),
    ("O=C(/C=C/c1ccc(F)cc1)[C@H]1[C@H](c2ccc(F)cc2)[C@H]2CSCN2[C@]12C(=O)Nc1ccccc12", "µM", 6),
    ("O=C(/C=C/c1ccc(Cl)cc1)[C@H]1[C@H](c2ccc(Cl)cc2)[C@H]2CSCN2[C@]12C(=O)Nc1ccccc12", "µM", 7),
    ("O=C(/C=C/c1ccc(Br)cc1)[C@H]1[C@H](c2ccc(Br)cc2)[C@H]2CSCN2[C@]12C(=O)Nc1ccccc12", "µM", 3),
]
